I'd be grateful if you could share measured half-life at 1 µM for these entries.
# assay.name: In vitro metabolic stability: disappearance half-life in human liver microsomes (HLM/37)
# Assay type: in vitro ADME
# measurement.conditions: human liver microsomes HLM/37 (0.5µM cytochrome P450), test compound 1µM, 37°C, NADPH, 60 minutes
Structures can show the parent of a compound that is named as a salt.

Problem: Please look up its half-life at 1 µM: CS(=O)(=O)N1CCC(C2CN(CC[C@]3(c4ccc(Cl)c(Cl)c4)CCCN(C(=O)c4ccccc4)C3)C2)CC1 [Example 6, hydrochloride]
Result: 53 min

Problem: Can you check "CS(=O)(=O)N1CC(C2CCN(CC[C@]3(c4ccc(Cl)c(Cl)c4)CCCN(C(=O)c4ccccc4)C3)CC2)C1" next?
Result: 32 min

Problem: # repeat for "O=C(c1ccccc1)N1CCC[C@](CCN2CCC(C3CCOCC3)CC2)(c2ccc(Cl)c(Cl)c2)C1"
Result: 28 min

====

Could you please report measured pKi for the items listed next?
# target.desc: NK3 receptor (Cavia porcellus)
# Construct: membranes from guinea pig cortex; from tissue; host or cells: guinea pig cortex membranes
# Sequence (P30098 whole entry): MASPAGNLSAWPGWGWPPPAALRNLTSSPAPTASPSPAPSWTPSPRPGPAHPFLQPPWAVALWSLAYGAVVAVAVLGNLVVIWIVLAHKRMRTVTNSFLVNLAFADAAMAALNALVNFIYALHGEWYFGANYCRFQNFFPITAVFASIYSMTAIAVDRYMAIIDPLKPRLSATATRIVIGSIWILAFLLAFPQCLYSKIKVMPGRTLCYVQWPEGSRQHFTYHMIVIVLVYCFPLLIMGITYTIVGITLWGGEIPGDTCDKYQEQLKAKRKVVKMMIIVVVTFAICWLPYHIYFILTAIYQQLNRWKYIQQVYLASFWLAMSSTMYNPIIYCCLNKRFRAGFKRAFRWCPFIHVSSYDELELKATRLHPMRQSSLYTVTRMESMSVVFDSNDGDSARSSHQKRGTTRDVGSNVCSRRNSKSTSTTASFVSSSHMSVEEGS
# assay.name: NK3 receptor affinity: inhibition of [3H]-senktide binding to guinea pig cortex membranes
Structures can show the parent of a compound that is named as a salt.
Just the number, please; pKi means minus log10 of the concentration in mol/L.

Problem: Quick one: pKi of CS(=O)(=O)N1CCC(C2CN(CC[C@]3(c4ccc(Cl)c(Cl)c4)CCCN(C(=O)c4ccccc4)C3)C2)CC1 [Example 6, hydrochloride] ?
Result: 7.40

Problem: And the next one, "CS(=O)(=O)N1CC(C2CCN(CC[C@]3(c4ccc(Cl)c(Cl)c4)CCCN(C(=O)c4ccccc4)C3)CC2)C1" ?
Result: 7.70

====

# target.desc: UniProt:P21452
# Sequence (P21452 whole entry): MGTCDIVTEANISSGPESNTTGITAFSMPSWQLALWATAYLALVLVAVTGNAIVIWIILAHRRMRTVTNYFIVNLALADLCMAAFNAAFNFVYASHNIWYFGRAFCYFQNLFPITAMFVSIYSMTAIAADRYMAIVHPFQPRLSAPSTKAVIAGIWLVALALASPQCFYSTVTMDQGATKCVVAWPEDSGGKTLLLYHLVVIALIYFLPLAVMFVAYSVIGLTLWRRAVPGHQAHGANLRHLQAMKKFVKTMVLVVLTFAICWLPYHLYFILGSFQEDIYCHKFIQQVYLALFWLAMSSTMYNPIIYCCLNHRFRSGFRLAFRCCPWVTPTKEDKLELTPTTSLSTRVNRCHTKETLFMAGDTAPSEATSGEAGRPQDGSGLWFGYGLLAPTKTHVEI
# assay.name: Human NK2 receptor affinity: competition with [3H]-NKA for binding to CHO cell membranes
Structures can show the parent of a compound that is named as a salt.
Would you kindly list Ki for each of these compounds?
The figure you give is taken to be in nM; do not add the unit.

Problem: If you can, please state the reported Ki value of "CS(=O)(=O)N1CC(C2CCN(CC[C@]3(c4ccc(Cl)c(Cl)c4)CCCN(C(=O)c4ccccc4)C3)CC2)C1" .
Result: 5.01

Problem: Same thing, different compound: CS(=O)(=O)N1CCC(C2CN(CC[C@]3(c4ccc(Cl)c(Cl)c4)CCCN(C(=O)c4ccccc4)C3)C2)CC1 [Example 6, hydrochloride]
Result: 5.01
